Species on record: Homo sapiens
experimental details: Platelets binding activity relative to heparin was evaluated by competitive binding assay using [3H]-labeled heparin at concentration ~400 uM
Format: functional
I'd appreciate it if you could supply Binding values for the items below.
One number for each entry, in %.

Recorded results for 3 compounds are shown here.
CO[C@H]1O[C@H](CO)[C@@H](O[C@H]2O[C@H](C(=O)[O-])[C@@H](OC3O[C@H](COS(=O)(=O)[O-])[C@@H](OC)[C@H](O)[C@H]3NS(=O)(=O)[O-])[C@H](O)[C@H]2OS(=O)(=O)[O-])[C@H](O)[C@H]1NS(=O)(=O)[O-].[Na+].[Na+].[Na+].[Na+].[Na+] (some centres undefined)    110
CO[C@H]1O[C@H](COS(=O)(=O)[O-])[C@@H](O[C@H]2O[C@H](C(=O)[O-])[C@@H](O[C@H]3O[C@H](COS(=O)(=O)[O-])[C@@H](OC)[C@H](O)[C@H]3NS(=O)(=O)[O-])[C@H](O)[C@H]2OS(=O)(=O)[O-])[C@H](O)[C@H]1NS(=O)(=O)[O-].[Na+].[Na+].[Na+].[Na+].[Na+].[Na+]    100
CO[C@@H]1O[C@H](C(=O)[O-])[C@@H](O[C@H]2O[C@H](COS(=O)(=O)[O-])[C@@H](OC)[C@H](OS(=O)(=O)[O-])[C@H]2NS(=O)(=O)[O-])[C@H](O)[C@H]1OS(=O)(=O)[O-].[Na+].[Na+].[Na+].[Na+].[Na+]    115

Next, consider the following compound.
Reported Binding of CO[C@H]1O[C@H](COS(=O)(=O)[O-])[C@@H](O[C@H]2O[C@H](C(=O)[O-])[C@@H](OC)[C@H](O)[C@H]2OS(=O)(=O)[O-])[C@H](O)[C@H]1NS(=O)(=O)[O-].[Na+].[Na+].[Na+].[Na+] : 96
